For each record, write down the corresponding Test F disease control rating.
Tested on: Phytophthora infestans
TEST SUMMARY: whole plant or invertebrate
Assay type: in vivo
ASSAY CONDITIONS: 200 ppm; 100 = 100% disease control, 0 = no control relative to controls
// return numeric value only (unit: %, not printed)

May I ask what Test F disease control rating has been recorded for `COc1ccc(-n2c(-c3c(F)cccc3F)c(Cl)nc(-n3cccn3)c2=O)cc1` ?
0

May I ask what Test F disease control rating has been recorded for `NC(=O)c1nc(Cl)c(-c2c(F)cc(F)cc2F)n(-c2ccccc2)c1=O` ?
100

May I ask what Test F disease control rating has been recorded for `CC(=O)Nc1nc(Cl)c(-c2c(F)cccc2F)n(CC(C)C)c1=O` ?
0

May I ask what Test F disease control rating has been recorded for `O=c1c(-n2cccn2)nc(Cl)c(-c2c(F)cc(F)cc2F)n1C1CCCCC1` ?
0

###

Test system: Colletotrichum orbiculare
TEST SUMMARY: Test B: cucumber Colletotrichum anthracnose, preventive spray on cucumber seedlings
ASSAY CONDITIONS: 200 ppm; 100 = 100% disease control, 0 = no control
For each record, write down the corresponding Test B disease control rating.
Could you write the number and then its unit?

May I ask what Test B disease control rating has been recorded for `Cc1ccn(-c2nc(Cl)c(-c3ccc4c(c3)OC(F)(F)O4)n(CC(C)C)c2=O)n1` ?
0%

May I ask what Test B disease control rating has been recorded for COCC(C)n1c(-c2c(F)cccc2F)c(Cl)nc(-n2cccc2C#N)c1=O (centres unmarked) ?
0%

May I ask what Test B disease control rating has been recorded for `CC(C)Cc1c(Cl)nc(-n2cccn2)c(=O)n1CC(C)C` ?
0%

May I ask what Test B disease control rating has been recorded for CCC(C)Cn1c(-c2ccc(F)cc2Cl)c(Cl)nc(-n2cc(Br)c(C)n2)c1=O (racemic) ?
9%

May I ask what Test B disease control rating has been recorded for `CC(C)c1c(Cl)nc(-n2cccn2)c(=O)n1Cc1ccccc1` ?
0%

###

For each record, write down the corresponding pest or weed control at 200 ppm.
Test system: Septoria nodorum
TEST SUMMARY: Test H: wheat glum blotch, preventive spray on wheat seedlings
ASSAY CONDITIONS: Parastagonospora nodorum, in Triticum aestivum, topical, 168 h, read-out: Test H disease control rating, 200 ppm
// return numeric value only (unit: %, not printed)

Query the reported pest or weed control at 200 ppm for Septoria nodorum; item: `CC(C)Cn1c(-c2c(F)cccc2F)c(Cl)nc(-c2ccccn2)c1=O`
100

Query the reported pest or weed control at 200 ppm for Septoria nodorum; item: `CC(C)Cn1c(-c2c(F)cccc2F)c(Br)nc(-n2cccn2)c1=O`
100

Query the reported pest or weed control at 200 ppm for Septoria nodorum; item: `CC(C)Cn1c(-c2c(F)cccc2F)c(Cl)nc(-n2cccn2)c1=O`
99

Query the reported pest or weed control at 200 ppm for Septoria nodorum; item: `CC(C)Cn1c(-c2c(F)cccc2F)c(Cl)nc(C#N)c1=O`
0

Query the reported pest or weed control at 200 ppm for Septoria nodorum; item: `CC(C)Cn1c(-c2ccc(F)cc2Cl)c(Cl)nc(-n2cccn2)c1=O`
100

Query the reported pest or weed control at 200 ppm for Septoria nodorum; item: `CC(C)Cn1c(-c2c(F)cccc2F)c(Cl)nc(-c2cn(C)cn2)c1=O`
97

Query the reported pest or weed control at 200 ppm for Septoria nodorum; item: `Cc1ccc(-c2nc(Cl)c(-c3c(F)cccc3F)n(CC(C)C)c2=O)nc1`
0

###

Test system: Botrytis cinerea
TEST SUMMARY: Test E: tomato botrytis, preventive spray on tomato seedlings
ASSAY CONDITIONS: 40 ppm (marked *); 100 = 100% disease control, 0 = no control
Marks after values point to notes of the source that are not given here.
REPORTED ENDPOINT: Test E disease control rating

May I ask what Test E disease control rating has been recorded for `CCCCn1c(-c2ccc(F)cc2Cl)c(Br)nc(-n2ccc(C)n2)c1=O` ?
99* %

May I ask what Test E disease control rating has been recorded for `O=c1c(-n2cccn2)nc(Cl)c(-c2c(F)cccc2F)n1-c1ccc(F)cc1F` ?
99* %

May I ask what Test E disease control rating has been recorded for `CC(C)Cn1c(-c2ccc(F)cc2Cl)c(Cl)nc(-n2cccn2)c1=O` ?
100* %

May I ask what Test E disease control rating has been recorded for `CC[C@H](C)Cn1c(-c2ccc(F)cc2Cl)c(Cl)nc(N2CCC=N2)c1=O` ?
99* %

May I ask what Test E disease control rating has been recorded for `Cc1ccn(-c2nc(Cl)c(-c3c(F)cc(F)cc3F)n(-c3ccccc3F)c2=O)n1` ?
99* %

May I ask what Test E disease control rating has been recorded for `CC[C@H](C)Cn1c(-c2ccc(F)cc2Cl)c(Br)nc(-n2ccc(C)n2)c1=O` ?
100* %

May I ask what Test E disease control rating has been recorded for `O=c1c(-n2cccn2)nc(Cl)c(-c2c(F)cccc2F)n1CCF` ?
0* %

May I ask what Test E disease control rating has been recorded for `CC[C@H](C)Cn1c(-c2ccc(F)cc2Cl)c(Cl)nc(-n2ccc(C)n2)c1=O` ?
100* %

###

Test system: Erysiphe graminis f. sp. tritici
TEST SUMMARY: Test L: wheat powdery mildew, preventive spray on wheat seedlings
ASSAY CONDITIONS: 40 ppm (*)
Marks after values point to notes of the source that are not given here.
REPORTED ENDPOINT: Test L disease control rating

Query the reported Test L disease control rating for Erysiphe graminis f. sp. tritici; item: `COc1cccc(-c2c(Cl)nc(-n3cncn3)c(=O)n2CC(C)C)c1`
0* %

Query the reported Test L disease control rating for Erysiphe graminis f. sp. tritici; item: `CC(C)Cn1c(-c2c(F)c(F)c(F)c(F)c2F)c(Cl)nc(-n2cccn2)c1=O`
99* %

Query the reported Test L disease control rating for Erysiphe graminis f. sp. tritici; item: `CC(C)Cn1c(Cc2ccccc2)c(Cl)nc(-n2cccn2)c1=O`
0* %

Query the reported Test L disease control rating for Erysiphe graminis f. sp. tritici; item: `CCCCn1c(-c2c(F)cc(F)cc2F)c(Cl)nc(-n2nccc2C)c1=O`
0* %

Query the reported Test L disease control rating for Erysiphe graminis f. sp. tritici; item: CCC(C)Cn1c(-c2c(F)cccc2F)c(Cl)nc(NN(C)C)c1=O (centres unmarked)
0* %

###

Test system: fusarium graminearium
TEST SUMMARY: Test I: wheat head scab, preventive spray on wheat seedlings
ASSAY CONDITIONS: 200 ppm; 100 = 100% disease control, 0 = no control
REPORTED ENDPOINT: Test I disease control rating (%)
// return numeric value only (unit: %, not printed)

May I ask what Test I disease control rating has been recorded for `O=c1c(-n2cccn2)nc(Cl)c(-c2c(F)cccc2F)n1C1CCC1` ?
0

May I ask what Test I disease control rating has been recorded for CCC(C)Cn1c(-c2c(F)cccc2F)c(Cl)nc(C(=O)NC)c1=O (stereo not shown) ?
75

May I ask what Test I disease control rating has been recorded for `O=c1c(-n2cccn2)nc(Cl)c(-c2c(F)cc(F)cc2F)n1Cc1ccccc1C(F)(F)F` ?
0

May I ask what Test I disease control rating has been recorded for `Cc1ccn(-c2nc(Cl)c(C(C)C)n(-c3ccccc3)c2=O)n1` ?
49

###

System: Rhizoctonia oryzae
TEST SUMMARY: Test G: turf brown patch, preventive spray on creeping bent grass seedlings
ASSAY CONDITIONS: 200 ppm; 100 = 100% disease control, 0 = no control
For each record, write down the corresponding Test G disease control rating.
// return numeric value only (unit: %, not printed)

May I ask what Test G disease control rating has been recorded for `Cc1ccn(-c2nc(Cl)c(-c3cc4c(cc3Cl)OCO4)n(CC(C)C)c2=O)n1` ?
0

May I ask what Test G disease control rating has been recorded for `CC(C)Cn1c(C2CCCC2)c(Cl)nc(-n2cccn2)c1=O` ?
77

May I ask what Test G disease control rating has been recorded for `CC(C)c1c(Cl)nc(-n2cccn2)c(=O)n1-c1ccccc1` ?
0

May I ask what Test G disease control rating has been recorded for `Cc1ccn(-c2nc(Cl)c(C3CCCCC3)n(CC(C)C)c2=O)n1` ?
0

May I ask what Test G disease control rating has been recorded for `CC(C)Cn1c(-c2c(F)cccc2F)c(Cl)nc(-c2cnccn2)c1=O` ?
99

May I ask what Test G disease control rating has been recorded for `Cc1ccn(-c2nc(Cl)c(C3CCCC3)n(CC(C)C)c2=O)n1` ?
0

May I ask what Test G disease control rating has been recorded for CCC(C)Cn1c(-c2c(F)cccc2F)c(Cl)nc(C(=O)NC(C)C)c1=O (stereo not drawn) ?
0

May I ask what Test G disease control rating has been recorded for `CC(C)Cn1c(-c2c(F)cccc2F)c(Cl)nc(N2CCCC2)c1=O` ?
0

May I ask what Test G disease control rating has been recorded for `CCc1c(Cl)nc(-n2cccn2)c(=O)n1CC(C)C` ?
0

May I ask what Test G disease control rating has been recorded for CCC(C)Cn1c(-c2c(F)cccc2F)c(Cl)nc(C(=O)NC)c1=O (stereo not drawn) ?
78

May I ask what Test G disease control rating has been recorded for CCC(C)CNC(=O)c1nc(Cl)c(-c2c(F)cccc2F)n(CC(C)CC)c1=O (stereo not drawn) ?
0

May I ask what Test G disease control rating has been recorded for `CC(C)Cn1c(-c2cc3c(cc2Cl)OCO3)c(Cl)nc(-n2cccn2)c1=O` ?
0

May I ask what Test G disease control rating has been recorded for `Cc1ccn(-c2nc(Cl)c(CC(C)C)n(CC(C)C)c2=O)n1` ?
0

May I ask what Test G disease control rating has been recorded for `CC(C)Cn1c(-c2cccc3c2OCO3)c(Cl)nc(-n2cccn2)c1=O` ?
21

May I ask what Test G disease control rating has been recorded for `Cc1ccn(-c2nc(Cl)c(C(C)C)n(Cc3ccccc3)c2=O)n1` ?
16

May I ask what Test G disease control rating has been recorded for `Cc1ccn(-c2nc(Cl)c(C(C)C)n(-c3ccccc3)c2=O)n1` ?
0

May I ask what Test G disease control rating has been recorded for `CC(C)Cn1c(C2CCCCC2)c(Cl)nc(-n2cccn2)c1=O` ?
0

May I ask what Test G disease control rating has been recorded for `Cc1ccn(-c2nc(Cl)c(-c3c(F)cc(F)cc3F)n(-c3ccc(Cl)cc3)c2=O)n1` ?
82

May I ask what Test G disease control rating has been recorded for COCC(C)n1c(-c2c(F)cccc2F)c(Cl)nc(-n2cccc2C#N)c1=O (stereo not drawn) ?
0

May I ask what Test G disease control rating has been recorded for CCC(C)Cn1c(-c2ccc(F)cc2Cl)c(Cl)nc(-n2ccc(Br)n2)c1=O (racemic) ?
16

May I ask what Test G disease control rating has been recorded for `CC(C)Cc1c(Cl)nc(-n2cccn2)c(=O)n1CC(C)C` ?
0

May I ask what Test G disease control rating has been recorded for `CC(C)Cn1c(C2CC2)c(Cl)nc(-n2cccn2)c1=O` ?
0

May I ask what Test G disease control rating has been recorded for CCC(C)Cn1c(-c2ccc(F)cc2Cl)c(Cl)nc(-n2ccc(C(OC)OC)n2)c1=O (racemic) ?
0

May I ask what Test G disease control rating has been recorded for CCC(C)Cn1c(-c2ccc(F)cc2Cl)c(Cl)nc(-n2cc(Br)c(C)n2)c1=O (racemic) ?
0

May I ask what Test G disease control rating has been recorded for `Cc1ccn(-c2nc(Cl)c(-c3cccc4c3OCO4)n(CC(C)C)c2=O)n1` ?
0

May I ask what Test G disease control rating has been recorded for `CCCCCc1c(Cl)nc(-n2cccn2)c(=O)n1CC(C)C` ?
0

May I ask what Test G disease control rating has been recorded for `O=c1c(-n2cccn2)nc(Cl)c(-c2ccccc2Cl)n1Cc1ccccc1` ?
0

May I ask what Test G disease control rating has been recorded for CCC(C)Cn1c(-c2c(F)cccc2F)c(Cl)nc(C(=O)NCC2CC2)c1=O (stereo not drawn) ?
16

May I ask what Test G disease control rating has been recorded for CCCNC(=O)c1nc(Cl)c(-c2c(F)cccc2F)n(CC(C)CC)c1=O (stereo not drawn) ?
31

May I ask what Test G disease control rating has been recorded for `Cc1ccn(-c2nc(Cl)c(-c3ccc4c(c3)OC(F)(F)O4)n(CC(C)C)c2=O)n1` ?
0

May I ask what Test G disease control rating has been recorded for `CC(C)c1c(Cl)nc(-n2cccn2)c(=O)n1Cc1ccccc1` ?
31

May I ask what Test G disease control rating has been recorded for `Cc1ccn(-c2nc(Cl)c(C(C)C)n(CC(C)C)c2=O)n1` ?
95

May I ask what Test G disease control rating has been recorded for `CC(C)Cn1c(-c2ccc3c(c2)OC(F)(F)O3)c(Cl)nc(-n2cccn2)c1=O` ?
0
